Target: Tyrosine-protein kinase Yes (Homo sapiens, UniProt P07947); also: in the data inactive means no Kd found up to 30 µM
Sequence (P07947 whole entry): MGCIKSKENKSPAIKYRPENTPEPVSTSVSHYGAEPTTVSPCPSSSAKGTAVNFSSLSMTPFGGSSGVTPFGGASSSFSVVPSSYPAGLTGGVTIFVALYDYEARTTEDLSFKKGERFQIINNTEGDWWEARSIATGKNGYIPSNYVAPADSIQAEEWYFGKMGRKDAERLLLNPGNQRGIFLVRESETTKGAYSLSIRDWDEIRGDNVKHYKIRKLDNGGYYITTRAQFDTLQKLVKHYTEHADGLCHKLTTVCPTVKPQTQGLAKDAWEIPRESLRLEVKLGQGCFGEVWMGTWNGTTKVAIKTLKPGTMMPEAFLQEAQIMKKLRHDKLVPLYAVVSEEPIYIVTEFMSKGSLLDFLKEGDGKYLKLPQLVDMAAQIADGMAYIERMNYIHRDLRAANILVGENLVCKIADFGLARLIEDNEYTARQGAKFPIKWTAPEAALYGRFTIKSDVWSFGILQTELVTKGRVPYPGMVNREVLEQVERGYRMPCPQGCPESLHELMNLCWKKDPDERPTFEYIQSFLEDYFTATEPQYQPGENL
Active and inactive are the calls of the source.
Respond only with the outcome that fits, drawn from 1 = active, -1 = inactive

input: Which outcome was assigned to CCn1c(C(=O)N(C2CC2)C2CC2)cc2c3c(ncn3C)c(Nc3cc(C)n(C)n3)nc21 in this test?
output: -1

input: Test call for this molecule, please: Cn1cnc2c(F)c(Nc3ccc(Br)cc3F)c(C(=O)NOCCO)cc21
output: -1

input: Would you mind telling me which call this test gave COc1c(OCCCN2CCOCC2)ccc2c1N=C(NC(=O)c1cnc(N)nc1)N1CCN=C21 ?
output: -1

input: Could you check what this test reported for FC(F)(F)c1ccc(/C=C/c2nc(COc3ccc(CCCCn4ccnn4)cc3)co2)cc1 ?
output: -1

input: Record lookup: outcome of this test for Cc1cc(Nc2ncc(Cl)c(Nc3ccccc3S(=O)(=O)C(C)C)n2)c(OC(C)C)cc1C1CCNCC1 ?
output: -1

input: Each molecule tested received a call. Report the one for CN(C[C@@H]1COCCO1)S(=O)(=O)Nc1ccc2ccc3ncc(-c4cnn(C)c4)cc3c(=O)c2c1 .
output: -1

input: Identify the outcome logged in this assay for the molecule shown: CC(C)c1cc(CNc2nc(Nc3cc(C4CC4)[nH]n3)cc(N3CCN(C)CC3)n2)on1
output: 1

input: So what was the verdict on Cc1cc(C(=O)NOCCO)c(Nc2ccc(I)cc2F)n(C)c1=O in this test?
output: -1

input: Called result for O=C1NC(=O)[C@@H](c2cn3c4c(cccc24)CCC3)[C@@H]1c1c[nH]c2ccccc12 [TIVANTINIB]
output: -1

input: Identify the outcome logged in this assay for the molecule shown: Cc1nc(NC(=O)N2CCC[C@H]2C(N)=O)sc1-c1ccnc(C(C)(C)C(F)(F)F)c1
output: -1

input: Status in this test for NC(=O)c1c(OCc2c(F)cc(Br)cc2F)nsc1NC(=O)NCCCCN1CCCC1 ?
output: 1

input: Could you kindly confirm the outcome this assay logged for Cc1csc(-c2nnc(Nc3ccc(Oc4ncccc4-c4ccnc(N)n4)cc3)c3ccccc23)c1 ?
output: -1

input: Record lookup: outcome of this test for COc1cc2ncnc(Oc3cccc(NC(=O)Nc4cc(C(C)(C)C(F)(F)F)on4)c3)c2cc1OC ?
output: -1

input: How was C[C@@H](Oc1cc(C(=O)Nc2ccc(C(=O)N3CCN(C)CC3)cc2)nnc1N)c1c(Cl)ccc(F)c1Cl classified in this test?
output: -1

input: Kindly provide the recorded test outcome for the following molecule: O=C(Nc1c[nH]nc1-c1nc2cc(CN3CCOCC3)ccc2[nH]1)NC1CC1
output: 1

input: Please let me know the test result on file for Cc1nc(Nc2n[nH]c3c2CN(C(=O)N[C@H](CN(C)C)c2ccccc2)C3(C)C)c2sccc2n1 .
output: 1

input: Assay outcome for CO[C@H]1C[C@@H]2CC[C@@H](C)[C@@](O)(O2)C(=O)C(=O)N2CCCC[C@H]2C(=O)O[C@H]([C@H](C)C[C@@H]2CC[C@@H](OC(=O)C(C)(CO)CO)[C@H](OC)C2)CC(=O)[C@H](C)/C=C(\C)[C@@H](O)[C@@H](OC)C(=O)[C@H](C)C[C@H](C)/C=C/C=C/C=C/1C : what was it?
output: -1

input: Dear all, I need the recorded test outcome for O=C(Cc1ccc(-c2ccc(OCCN3CCOCC3)cc2)cn1)NCc1ccccc1 , thank you.
output: -1

input: State the result this test recorded for COc1cc([C@@H]2c3cc4c(cc3[C@H](O)[C@H]3COC(=O)[C@@H]23)OCO4)cc(OC)c1OC .
output: -1

input: Tell me the recorded outcome of this test for Cc1cc(Nc2ncnc3ccc(NC4=NC(C)(C)CO4)cc23)ccc1Oc1ccn2ncnc2c1 .
output: -1

input: Lab log entry: CN1C/C=C/CCOc2cccc(c2)-c2ccnc(n2)Nc2cccc(c2)C1 — outcome as called in the assay?
output: -1

input: Test call, this molecule: CCNC(=O)C#Cc1ccc2c(c1)NC(=O)/C2=C(\Nc1ccc(CN(C)C)cc1)c1ccccc1
output: 1

input: Kindly provide the recorded test outcome for the following molecule: Cn1cc(-c2cnn3c(N)c(Br)c([C@@H]4CCCNC4)nc23)cn1
output: -1

input: Look up the recorded call for NC1(c2ccc(-c3nc4ccn5c(=O)[nH]nc5c4cc3-c3ccccc3)cc2)CCC1 in this test.
output: -1

input: Each molecule tested received a call. Report the one for C[C@H]1CNCCCN1S(=O)(=O)c1cccc2cncc(F)c12 .
output: -1

input: Look up the recorded call for O=C(Nc1nc2cccc(-c3ccc(CN4CCS(=O)(=O)CC4)cc3)n2n1)C1CC1 in this test.
output: -1

input: Check the results log: what was the call for Cc1nc2cc(-c3nn(C(C)C)c4ncnc(N)c34)ccc2o1 ?
output: -1

input: Recorded call for CO[C@H]1C[C@@H]2CC[C@@H](C)[C@@](O)(O2)C(=O)C(=O)N2CCCC[C@H]2C(=O)O[C@H]([C@H](C)C[C@@H]2CC[C@@H](OP(C)(C)=O)[C@H](OC)C2)CC(=O)[C@H](C)/C=C(\C)[C@@H](O)[C@@H](OC)C(=O)[C@H](C)C[C@H](C)/C=C/C=C/C=C/1C ?
output: -1

input: Test call for this molecule, please: C[C@@H](N)c1ccc(C(=O)Nc2ccnc3[nH]ccc23)cc1
output: -1
